Each recorded value in this set is attributed to BigSolDB 2.1.

# run_conditions: in ethyl acetate, 293.15 K
readout_label: solubility (mole fraction)

{"molecule_smiles": "CC[C@@H](C(=O)[C@@H](C)[C@@H](O)[C@H](C)CCc1ccc(C)c(O)c1C(=O)[O-])[C@H]1O[C@](CC)([C@H]2CC[C@](O)(CC)[C@H](C)O2)C[C@@H]1C.[Na+]", "recorded_result": 0.00548}

---

# run_conditions: in ethyl acetate, 288.15 K

{"molecule_smiles": "CC[C@@H](C(=O)[C@@H](C)[C@@H](O)[C@H](C)CCc1ccc(C)c(O)c1C(=O)[O-])[C@H]1O[C@](CC)([C@H]2CC[C@](O)(CC)[C@H](C)O2)C[C@@H]1C.[Na+]", "solubility (mole fraction)": 0.00538}
